# Organism: Rattus norvegicus
# Protocol Text: Open TG-GATES - Regimen: Single
# Type: toxicity, organism-based, Sprague-Dawley
# Set-up: regimen Single, gender Male, age 6 weeks
# Measurement Context: in vivo, po, 0 mg/kg, 9 h, tissue Plasma, route gavage, dose level Control
Measured Metric: AST (IU/L)
Provide the reading as a plain figure in IU/L.

Ask: Which AST is reported for this compound? O=C(CCCN1CCC(O)(c2ccc(Cl)cc2)CC1)c1ccc(F)cc1
Result: 59.8

Ask: Which AST is reported for this compound? Cc1ccc(C)c(OCCCC(C)(C)C(=O)O)c1
Result: 65.4

Ask: Which AST is reported for this compound? CN(C)CCCN1c2ccccc2CCc2ccc(Cl)cc21
Result: 79.8

Ask: Which AST is reported for this compound? CCCNC(=O)NS(=O)(=O)c1ccc(Cl)cc1 [CHLORPROPAMIDE]
Result: 74.6

Ask: Which AST is reported for this compound? CN(C)CCN(Cc1cccs1)c1ccccn1
Result: 66.4

Ask: Which AST is reported for this compound? CN1C(=O)CN=C(c2ccccc2)c2cc(Cl)ccc21
Result: 59.8
